These entries and their values trace back to patent US20240376189A1.

biological target: T1, human C5 (human, UniProt P01031 19-673; P01031 678-1676, limits assumed); assay: BLI (Gator), percentage dissociation from human C5 at pH 5.8 over pH 7.4
T1 construct: In the sheep RBC lysis assay, C5 is the C5 of normal human serum; also called huC5
Experimental endpoint: Ratio between dissociation at pH 5.8 and 7.4
Form field (numeric): enter value without unit.

// Ratio between dissociation at pH 5.8 and 7.4 lookup, binder = N92H (humanized anti-C5a IgG4 antibody) (antibody, V domains shown, Carries F29H in VH and N92H and Y96H in VL (Kabat); also called N92H antibody) VH: QVQLVQSGAEVKKPGSSVKVSCKASGYTHTDHIIHWMRQAPGQGLEWMGYIYPREGWTNYNENFKGRVTITADKSTSTAYMELSSLRSEDTAVYYCARERNLEYFDYWGQGTTVTVSS VL: DIVLTQSPASLAVSPGQRATITCKASQSVDYEGFNYMNWYQQKPGQPPKLLIYAASNLDSGVPARFSGSGSGTDFTLTINPVEAEDTANYYCQQSHEDPHTFGGGTKVEIKR , result: 6.54

Kindly note the recorded Ratio between dissociation at pH 5.8 and 7.4 for N97H (humanized anti-C5a IgG4 antibody) (antibody, V domains shown, Carries F29H and N97H in VH and Y96H in VL (Kabat)) VH: QVQLVQSGAEVKKPGSSVKVSCKASGYTHTDHIIHWMRQAPGQGLEWMGYIYPREGWTNYNENFKGRVTITADKSTSTAYMELSSLRSEDTAVYYCARERHLEYFDYWGQGTTVTVSS VL: DIVLTQSPASLAVSPGQRATITCKASQSVDYEGFNYMNWYQQKPGQPPKLLIYAASNLDSGVPARFSGSGSGTDFTLTINPVEAEDTANYYCQQSNEDPHTFGGGTKVEIKR , which is 10.9

Recorded Ratio between dissociation at pH 5.8 and 7.4 (binder E54H (humanized anti-C5a IgG4 antibody) (antibody, V domains shown, Carries F29H and E54H in VH and Y96H in VL (Kabat) relative to 16D10) VH: QVQLVQSGAEVKKPGSSVKVSCKASGYTHTDHIIHWMRQAPGQGLEWMGYIYPRHGWTNYNENFKGRVTITADKSTSTAYMELSSLRSEDTAVYYCARERNLEYFDYWGQGTTVTVSS VL: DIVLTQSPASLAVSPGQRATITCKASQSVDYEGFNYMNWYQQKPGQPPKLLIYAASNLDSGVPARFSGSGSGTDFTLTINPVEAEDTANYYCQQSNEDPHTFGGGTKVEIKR ): 11.3

Field: next binder
Ratio between dissociation at pH 5.8 and 7.4 in this record for 16D10 (humanized anti-C5a IgG4 antibody) (antibody, V domains shown, also called WT (16D10); WT) VH: QVQLVQSGAEVKKPGSSVKVSCKASGYTFTDHIIHWMRQAPGQGLEWMGYIYPREGWTNYNENFKGRVTITADKSTSTAYMELSSLRSEDTAVYYCARERNLEYFDYWGQGTTVTVSS VL: DIVLTQSPASLAVSPGQRATITCKASQSVDYEGFNYMNWYQQKPGQPPKLLIYAASNLDSGVPARFSGSGSGTDFTLTINPVEAEDTANYYCQQSNEDPYTFGGGTKVEIKR : -2.09
